targetEntity: human DPP-2 (Homo sapiens)
Construct: human DPP-2 covering amino acid 30-492; made in house; host or cells: insect cells (baculovirus expression system)
methodNotes: DPP-2 (dipeptidyl peptidase 2) IC50 assay, Nle-Pro-AMC fluorescence intensity
Type: biochemical
experimentalConditions: individual experiments 1-4, read-out: IC50 value
pIC50: −log10 of the molar value.
recordedEndpoint: pIC50

Under human DPP-2 (Homo sapiens): pIC50 value of N#C[C@@H]1CCCN1C(=O)CNC12CC3CC(C1)CC(O[C@@H]1O[C@H](C(=O)O)[C@@H](O)[C@H](O)[C@H]1O)(C3)C2 ?
< 3.52

###

targetEntity: human DPP-IV (Homo sapiens)
Construct: human DPP-IV covering amino acid 39-766; made in house; host or cells: insect cells (baculovirus expression system)
Sequence (P27487 39-766): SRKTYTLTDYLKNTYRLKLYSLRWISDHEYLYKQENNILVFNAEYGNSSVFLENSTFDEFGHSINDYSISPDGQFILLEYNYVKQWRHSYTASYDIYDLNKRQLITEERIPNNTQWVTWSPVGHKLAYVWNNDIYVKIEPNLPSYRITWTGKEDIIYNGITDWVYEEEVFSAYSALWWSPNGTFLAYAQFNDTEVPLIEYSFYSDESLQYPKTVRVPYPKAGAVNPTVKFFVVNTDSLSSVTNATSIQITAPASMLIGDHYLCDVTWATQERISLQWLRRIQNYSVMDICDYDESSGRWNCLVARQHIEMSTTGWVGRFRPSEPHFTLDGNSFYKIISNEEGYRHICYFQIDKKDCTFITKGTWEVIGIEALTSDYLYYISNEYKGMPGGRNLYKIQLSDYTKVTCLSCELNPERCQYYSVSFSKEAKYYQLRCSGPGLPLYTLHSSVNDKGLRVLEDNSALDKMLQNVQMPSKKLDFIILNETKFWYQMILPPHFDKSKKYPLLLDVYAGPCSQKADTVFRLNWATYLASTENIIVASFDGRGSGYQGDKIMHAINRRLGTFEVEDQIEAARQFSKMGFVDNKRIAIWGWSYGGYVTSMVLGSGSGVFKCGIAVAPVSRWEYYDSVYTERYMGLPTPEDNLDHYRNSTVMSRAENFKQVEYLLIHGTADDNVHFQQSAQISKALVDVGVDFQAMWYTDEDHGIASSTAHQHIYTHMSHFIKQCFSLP
methodNotes: DPP-IV (dipeptidyl peptidase IV) IC50 assay, Gly-Pro-AMC fluorescence intensity
Format: biochemical
experimentalConditions: human DPP-IV; mean of 4 experiments; read-out: Mean IC50 value ± SD
recordedEndpoint: pIC50
// returns pIC50 (minus log10 of molar concentration), number only

Entry N#C[C@@H]1CCCN1C(=O)CNC12CC3CC(C1)CC(O[C@@H]1O[C@H](C(=O)O)[C@@H](O)[C@H](O)[C@H]1O)(C3)C2 has what pIC50?
8.22

###

targetEntity: human DPP-2 (Homo sapiens, UniProt Q9UHL4)
Construct: human DPP-2 covering amino acid 30-492; made in house; host or cells: insect cells (baculovirus expression system)
methodNotes: DPP-2 (dipeptidyl peptidase 2) IC50 assay, Nle-Pro-AMC fluorescence intensity
Format: biochemical
experimentalConditions: mean of 4 experiments, read-out: Mean IC50 value ± SD
pIC50: −log10 of the molar value.
recordedEndpoint: pIC50

Reported pIC50 for N#C[C@@H]1CCCN1C(=O)CNC12CC3CC(C1)CC(O[C@@H]1O[C@H](C(=O)O)[C@@H](O)[C@H](O)[C@H]1O)(C3)C2 : what is it?
< 4.05

###

targetEntity: human DPP-8 (Homo sapiens)
Construct: human DPP-8 covering amino acid 1-882; made in house; host or cells: insect cells (baculovirus expression system)
Sequence (Q6V1X1 17-898): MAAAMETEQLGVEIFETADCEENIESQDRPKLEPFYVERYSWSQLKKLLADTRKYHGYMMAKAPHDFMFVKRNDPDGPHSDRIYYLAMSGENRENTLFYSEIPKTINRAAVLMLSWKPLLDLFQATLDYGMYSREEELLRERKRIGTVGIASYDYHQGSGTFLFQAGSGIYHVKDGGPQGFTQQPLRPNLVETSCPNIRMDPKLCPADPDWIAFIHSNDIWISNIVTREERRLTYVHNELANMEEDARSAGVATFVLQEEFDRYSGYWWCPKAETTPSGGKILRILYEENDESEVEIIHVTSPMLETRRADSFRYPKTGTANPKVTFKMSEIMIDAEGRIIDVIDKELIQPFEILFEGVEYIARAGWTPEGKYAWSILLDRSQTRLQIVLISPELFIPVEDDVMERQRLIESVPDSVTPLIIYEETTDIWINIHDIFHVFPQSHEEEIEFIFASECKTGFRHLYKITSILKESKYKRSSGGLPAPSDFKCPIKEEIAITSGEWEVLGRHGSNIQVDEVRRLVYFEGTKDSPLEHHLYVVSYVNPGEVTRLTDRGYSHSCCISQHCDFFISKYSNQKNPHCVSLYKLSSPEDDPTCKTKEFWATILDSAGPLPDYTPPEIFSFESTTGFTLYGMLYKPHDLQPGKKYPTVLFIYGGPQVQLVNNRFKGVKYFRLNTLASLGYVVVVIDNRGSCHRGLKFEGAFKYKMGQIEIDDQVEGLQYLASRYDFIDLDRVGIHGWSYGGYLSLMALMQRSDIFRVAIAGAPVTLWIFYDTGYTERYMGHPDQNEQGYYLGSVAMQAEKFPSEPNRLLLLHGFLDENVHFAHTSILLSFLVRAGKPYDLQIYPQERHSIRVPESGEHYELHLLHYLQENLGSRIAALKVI
methodNotes: DPP-8 (dipeptidyl-peptidase 8) IC50 assay, Gly-Pro-AMC fluorescence intensity
Assay type: biochemical
experimentalConditions: human DPP-8; mean of 4 experiments; read-out: Mean IC50 value ± SD
recordedEndpoint: pIC50
// pIC50: -log10(molar conc.)

Fill in: pIC50 of N#C[C@@H]1CCCN1C(=O)CNC12CC3CC(C1)CC(O[C@@H]1O[C@H](C(=O)O)[C@@H](O)[C@H](O)[C@H]1O)(C3)C2 is ___
5.10
